Recorded peptide exchange yield, one value per entry.
target-desc: T1, HLA-A*01:01 (human)
T1 construct: MHC class I monomer first loaded with a UV-sensitive peptide (not identified) that is cleaved by UV irradiation and exchanged for the tested peptide; captured on streptavidin plates, detected with anti-β2m; also called peptide-receptive MHC molecules
procedure-details: UV-ligand exchange, anti-b2m ELISA

# example entries with known answers
1. DTTSHTYLQY ... 20 to 50%
2. VQDPSLPVY ... 20 to 50%
3. VAGLEAGVLY ... 20 to 50%
4. QVWGGQPVY ... 10 to 20%
5. FRGVFVHRY ... 20 to 50%
6. DTEFHGGLHY ... 50 to 75%
7. VQPGETYTY ... 50 to 75%
8. ASDLEPRELLSY ... 50 to 75%
9. YLDSSKPAVY ... 50 to 75%
10. SSDNYEHWLY ... > 75%

So for RMQEGSEVY , the logged peptide exchange yield turned out to be 20 to 50%

So for AVSSGLFFY , the logged peptide exchange yield turned out to be 20 to 50%

So for LSQDELSKF , the logged peptide exchange yield turned out to be 20 to 50%

So for YLNEWGSRF , the logged peptide exchange yield turned out to be 20 to 50%

So for WSDSTSQTIY , the logged peptide exchange yield turned out to be > 75%
